Entries and their measured Accumulative excretion amount follow.
Assay: Fecal excretion study in rats after oral NS, SF or CNS (LC–MS/MS)
Assay type: in vivo
Details: rat feces, oral NS 60 mg/kg, 24 h
Protocol: The animal room was set at constant temperature of 20 ± 2 °C with humidity of 50 ± 20% and 12/12 h light/dark cycle. Eighteen male rats were fasted for 12 h before starting the experiment. […] The urine volume was recorded and the dry feces were measured for each collection period. […] The accumulative excretion percentage was calculated for each analyte as follows. […]
# number only, unit µg dropped from output

Take a look at these entries with their results.
>  <compound>
CC(C)=CCC[C@](C)(O[C@@H]1O[C@H](CO)[C@@H](O)[C@H](O)[C@H]1O)[C@H]1CC[C@]2(C)[C@@H]1[C@H](O)C[C@@H]1[C@@]3(C)CC[C@H](O)C(C)(C)[C@@H]3[C@@H](O[C@@H]3O[C@H](CO)[C@@H](O)[C@H](O)[C@H]3O[C@@H]3O[C@@H](C)[C@H](O)[C@@H](O)[C@H]3O)C[C@]12C [ginsenoside Re]

>  <unitDescriptor>
µg

>  <endpointResult>
23.057

$$$$
>  <compound>
CC(C)=CCC[C@](C)(O[C@@H]1O[C@H](CO)[C@@H](O)[C@H](O)[C@H]1O)[C@H]1CC[C@]2(C)[C@@H]1[C@H](O)C[C@@H]1[C@@]3(C)CC[C@H](O)C(C)(C)[C@@H]3[C@@H](O[C@@H]3O[C@H](CO)[C@@H](O)[C@H](O)[C@H]3O)C[C@]12C [ginsenoside Rg1]

>  <unitDescriptor>
µg

>  <endpointResult>
72.682

$$$$
>  <compound>
CC(C)=CCC[C@](C)(O[C@@H]1O[C@H](CO[C@@H]2O[C@H](CO)[C@@H](O)[C@H](O)[C@H]2O)[C@@H](O)[C@H](O)[C@H]1O)[C@H]1CC[C@]2(C)[C@@H]1[C@H](O)C[C@@H]1[C@@]3(C)CC[C@H](O[C@@H]4O[C@H](CO)[C@@H](O)[C@H](O)[C@H]4O[C@@H]4O[C@H](CO)[C@@H](O)[C@H](O)[C@H]4O)C(C)(C)[C@@H]3CC[C@]12C [ginsenoside Rb1]

>  <unitDescriptor>
µg

>  <endpointResult>
87.371

$$$$

Attention now shifts to the item below.
Q. I would be grateful if you could share the reported Accumulative excretion amount for CC(C)=CCC[C@](C)(O[C@@H]1O[C@H](CO)[C@@H](O)[C@H](O)[C@H]1O)[C@H]1CC[C@]2(C)[C@@H]1[C@H](O)C[C@@H]1[C@@]3(C)CC[C@H](O[C@@H]4O[C@H](CO)[C@@H](O)[C@H](O)[C@H]4O[C@@H]4O[C@H](CO)[C@@H](O)[C@H](O)[C@H]4O)C(C)(C)[C@@H]3CC[C@]12C [ginsenoside Rd] .
A. 37.713
